biological target: PI3Kα (p110α/p85α)(h) (Homo sapiens); assay: PI3K-HTRF in vitro enzyme assay, PI3Kα; conditions: enzyme 0.1 μg/ml
Sequence (P42336 whole entry): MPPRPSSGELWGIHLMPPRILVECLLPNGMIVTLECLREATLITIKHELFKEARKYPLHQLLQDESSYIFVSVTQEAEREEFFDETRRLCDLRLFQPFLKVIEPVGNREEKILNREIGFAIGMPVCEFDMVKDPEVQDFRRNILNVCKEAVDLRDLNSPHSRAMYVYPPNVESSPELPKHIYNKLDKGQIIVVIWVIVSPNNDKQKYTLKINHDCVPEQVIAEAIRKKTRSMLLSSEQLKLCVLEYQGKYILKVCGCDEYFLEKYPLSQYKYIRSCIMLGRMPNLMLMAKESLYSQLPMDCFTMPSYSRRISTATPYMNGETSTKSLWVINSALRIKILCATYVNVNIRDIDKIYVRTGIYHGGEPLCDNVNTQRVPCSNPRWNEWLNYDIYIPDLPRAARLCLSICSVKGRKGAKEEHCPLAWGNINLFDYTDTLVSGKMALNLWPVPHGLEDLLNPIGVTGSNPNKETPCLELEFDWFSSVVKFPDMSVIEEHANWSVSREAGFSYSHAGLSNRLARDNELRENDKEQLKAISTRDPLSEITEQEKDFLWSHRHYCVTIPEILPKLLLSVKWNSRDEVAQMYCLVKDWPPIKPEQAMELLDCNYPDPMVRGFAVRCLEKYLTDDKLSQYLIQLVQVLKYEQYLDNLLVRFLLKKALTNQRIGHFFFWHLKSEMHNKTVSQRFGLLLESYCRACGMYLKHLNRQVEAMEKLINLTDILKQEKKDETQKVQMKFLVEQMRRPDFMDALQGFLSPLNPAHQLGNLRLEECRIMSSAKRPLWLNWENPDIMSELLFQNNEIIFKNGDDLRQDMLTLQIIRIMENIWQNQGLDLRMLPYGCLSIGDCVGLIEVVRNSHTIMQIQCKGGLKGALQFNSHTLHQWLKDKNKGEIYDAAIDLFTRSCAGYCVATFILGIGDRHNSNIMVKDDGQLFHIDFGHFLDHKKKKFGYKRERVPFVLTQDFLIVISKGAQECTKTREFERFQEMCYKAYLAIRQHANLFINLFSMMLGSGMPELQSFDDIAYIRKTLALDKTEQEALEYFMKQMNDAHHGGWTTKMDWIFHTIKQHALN
Sequence (P27986 whole entry partner): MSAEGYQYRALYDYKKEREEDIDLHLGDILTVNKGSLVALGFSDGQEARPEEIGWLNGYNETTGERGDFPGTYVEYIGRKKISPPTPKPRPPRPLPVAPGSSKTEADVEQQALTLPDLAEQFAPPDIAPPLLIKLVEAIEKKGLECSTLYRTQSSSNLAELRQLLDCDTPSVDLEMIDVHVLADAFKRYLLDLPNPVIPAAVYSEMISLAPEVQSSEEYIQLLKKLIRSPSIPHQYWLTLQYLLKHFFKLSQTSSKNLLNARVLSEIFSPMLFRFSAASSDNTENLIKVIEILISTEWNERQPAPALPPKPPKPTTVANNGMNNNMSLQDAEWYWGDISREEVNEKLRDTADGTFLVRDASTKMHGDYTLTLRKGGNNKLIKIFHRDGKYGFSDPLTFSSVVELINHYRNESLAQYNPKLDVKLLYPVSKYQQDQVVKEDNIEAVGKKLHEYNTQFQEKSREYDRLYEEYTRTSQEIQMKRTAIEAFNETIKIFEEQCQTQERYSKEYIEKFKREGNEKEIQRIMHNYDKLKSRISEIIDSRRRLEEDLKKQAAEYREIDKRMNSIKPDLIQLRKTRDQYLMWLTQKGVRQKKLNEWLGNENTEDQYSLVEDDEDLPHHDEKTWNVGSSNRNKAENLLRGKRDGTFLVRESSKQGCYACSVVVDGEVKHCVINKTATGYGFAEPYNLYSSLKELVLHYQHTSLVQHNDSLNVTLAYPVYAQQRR
pIC50: −log10 of the molar value.
Endpoint name: pIC50

compound=CC[C@H](Nc1ncnc2ccc(C#N)cc12)c1nc2cccc(-c3cnc(OC)nc3)c2c(=O)n1-c1ccccc1 observed_result=6.00
compound=CCOc1ncc(-c2cccc3nc([C@@H](Nc4ncnc5ccc(C#N)cc45)C4CC4)n(-c4ccccc4)c(=O)c23)cn1 observed_result=5.89
compound=COc1ncc(-c2cccc3cc([C@H](C)Nc4ncnc5ccc(C#N)cc45)n(-c4ccccc4)c(=O)c23)cn1 observed_result=5.91
compound=CC[C@H](Nc1ncnc2ccc(C#N)cc12)c1nc2cccc(-c3cnc(SC)nc3)c2c(=O)n1-c1ccccc1 observed_result=6.10
compound=C[C@H](Nc1ncnc2ccc(C#N)cc12)c1cc2cccc(-c3cnc(C4CC4)nc3)c2c(=O)n1-c1ccccc1 observed_result=6.38
compound=CCC[C@H](Nc1ncnc2ccc(C#N)cc12)c1nc2cccc(-c3cnc(OCC)nc3)c2c(=O)n1-c1ccccc1 observed_result=5.32
compound=C[C@H](Nc1ncnc2ccc(C#N)cc12)c1cc2cccc(-c3cncnc3)c2c(=O)n1-c1ccccc1 observed_result=5.76
